Hi there, I'd appreciate the recorded K obs / 1 for every entry that follows.
# Target Entity: Human rhinovirus A protease (Human rhinovirus sp.) (UniProt Q4U254)
# Sequence (Q4U254 as listed by the source): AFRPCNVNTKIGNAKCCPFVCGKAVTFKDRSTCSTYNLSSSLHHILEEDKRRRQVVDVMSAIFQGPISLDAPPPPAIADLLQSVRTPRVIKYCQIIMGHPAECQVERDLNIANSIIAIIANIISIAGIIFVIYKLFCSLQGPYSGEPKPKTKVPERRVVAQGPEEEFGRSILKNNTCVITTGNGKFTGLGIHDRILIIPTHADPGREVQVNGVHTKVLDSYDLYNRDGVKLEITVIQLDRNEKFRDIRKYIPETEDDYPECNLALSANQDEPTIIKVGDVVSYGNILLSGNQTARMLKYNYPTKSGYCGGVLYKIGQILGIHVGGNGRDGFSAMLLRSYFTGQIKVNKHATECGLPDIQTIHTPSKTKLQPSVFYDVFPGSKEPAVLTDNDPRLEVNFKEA
# Experiment Notes: Binding affinity on human Rhinovirus 3C protease (rhinovirus serotype 14)
Answers are plain numbers, in M⁻¹ s⁻¹.

[[record]]
line_notation = "CCOC(=O)/C=C/[C@H](CCC(N)=O)NC(=O)[C@H](Cc1ccccc1)NC(=O)[C@H](CC(C)C)NC(=O)NCc1ccccc1"
unit_descriptor = "M⁻¹ s⁻¹"
reported_measurement = 6900

[[record]]
line_notation = "CCOC(=O)/C=C/[C@H](CCC(C)=O)NC(=O)[C@H](Cc1ccccc1)NC(=O)[C@H](CC(C)C)NC(=O)OCc1ccccc1"
unit_descriptor = "M⁻¹ s⁻¹"
reported_measurement = 1400


Turning to the following compound.
Data request: What value of K obs / 1 has been reported for the following compound? `CCOC(=O)/C=C/[C@H](CCC(=O)NC)NC(=O)[C@H](Cc1ccccc1)NC(=O)[C@H](CC(C)C)NC(=O)OCc1ccccc1`
Data returned: 750
